# experimental protocol: In vivo microdialysis pharmacokinetics of LVFX without transporter inhibitors
# Parameters: species or system rat
# run conditions: rat, brain ECF, iv, 50 mg/kg, brain ECF; Group 4: LVFX 50 mg/kg alone; mean ± SD, n=3
reported endpoint: AUC(0-inf) (ng·h/mL)

C[C@H]1COc2c(N3CCN(C)CC3)c(F)cc3c(=O)c(C(=O)O)cn1c23 [LVFX, Levofloxacin] | 3940

====

# Tested on: P-glycoprotein (P-gp)
# experimental protocol: In vivo microdialysis pharmacokinetics of LVFX with P-gp inhibitor Tariquidar
# Parameters: species or system rat
# run conditions: rat, brain ECF (hippocampal microdialysate, unbound), intravenous, with Tariquidar 8 mg/kg i.p., 30 min before LVFX; brain ECF; TAR group, Tariquidar 8 mg/kg i.p. + LVFX 50 mg/kg; mean ± SD, N=5
reported endpoint: Cmax (ng/mL)

C[C@H]1COc2c(N3CCN(C)CC3)c(F)cc3c(=O)c(C(=O)O)cn1c23 | 2810

====

# experimental protocol: In vivo microdialysis pharmacokinetics of LVFX without transporter inhibitors
# Set-up: species or system rat
# run conditions: rat, blood (microdialysate, unbound), iv, 50 mg/kg, blood; Group 4: LVFX 50 mg/kg alone; mean ± SD, n=3
reported endpoint: half-life (h)

C[C@H]1COc2c(N3CCN(C)CC3)c(F)cc3c(=O)c(C(=O)O)cn1c23 | 1.01

====

# experimental protocol: In vivo microdialysis pharmacokinetics of LVFX without transporter inhibitors
# Parameters: species or system rat
# run conditions: rat, hippocampal brain ECF (microdialysate, unbound), iv, 50 mg/kg, hippocampal brain ECF; control group, vehicle + LVFX 50 mg/kg tail vein; mean ± SD, N=12
reported endpoint: Cmax (ng/mL)

C[C@H]1COc2c(N3CCN(C)CC3)c(F)cc3c(=O)c(C(=O)O)cn1c23 | 2710

====

# experimental protocol: In vivo microdialysis pharmacokinetics of LVFX without transporter inhibitors
# Set-up: species or system rat
# run conditions: rat, CSF, iv, 50 mg/kg, pH 9, CSF; Group 3: physiological saline alkalinized with NaOH (pH 9.0–9.2) + LVFX 50 mg/kg; mean ± SD, n=3
reported endpoint: half-life (min)

C[C@H]1COc2c(N3CCN(C)CC3)c(F)cc3c(=O)c(C(=O)O)cn1c23 [LVFX, Levofloxacin] | 45.8

====

# Test system: P-glycoprotein (P-gp)
# experimental protocol: In vivo microdialysis pharmacokinetics of LVFX with P-gp inhibitor Tariquidar
# Parameters: species or system rat
# run conditions: rat, CSF (lateral ventricle microdialysate, unbound), intravenous, with Tariquidar 8 mg/kg i.p., 30 min before LVFX; CSF; TAR group, Tariquidar 8 mg/kg i.p. + LVFX 50 mg/kg; mean ± SD, N=5
reported endpoint: MRT (h)

C[C@H]1COc2c(N3CCN(C)CC3)c(F)cc3c(=O)c(C(=O)O)cn1c23 [LVFX, Levofloxacin] | 1.33

====

# Test system: Breast cancer resistance protein (BCRP)
# Construct: from tissue; host or cells: living rat (blood-brain barrier, choroid plexus)
# experimental protocol: In vivo microdialysis pharmacokinetics of LVFX with BCRP inhibitor Ko143
# run conditions: rat, brain ECF / blood, intravenous, with Ko143 15 mg/kg i.p., 30 min before LVFX; AUCu,ECF/AUCu,blood; Ko143 group, Ko143 15 mg/kg i.p. + LVFX 50 mg/kg; N=5; read-out: K p,uu,ECF
reported endpoint: Kp

C[C@H]1COc2c(N3CCN(C)CC3)c(F)cc3c(=O)c(C(=O)O)cn1c23 [LVFX, Levofloxacin] | 0.389
